# measured_on: AKT2 (Homo sapiens, UniProt P31751)
# Construct: expressed in transfected cells; host or cells: HEK293
# Sequence (P31751 whole entry): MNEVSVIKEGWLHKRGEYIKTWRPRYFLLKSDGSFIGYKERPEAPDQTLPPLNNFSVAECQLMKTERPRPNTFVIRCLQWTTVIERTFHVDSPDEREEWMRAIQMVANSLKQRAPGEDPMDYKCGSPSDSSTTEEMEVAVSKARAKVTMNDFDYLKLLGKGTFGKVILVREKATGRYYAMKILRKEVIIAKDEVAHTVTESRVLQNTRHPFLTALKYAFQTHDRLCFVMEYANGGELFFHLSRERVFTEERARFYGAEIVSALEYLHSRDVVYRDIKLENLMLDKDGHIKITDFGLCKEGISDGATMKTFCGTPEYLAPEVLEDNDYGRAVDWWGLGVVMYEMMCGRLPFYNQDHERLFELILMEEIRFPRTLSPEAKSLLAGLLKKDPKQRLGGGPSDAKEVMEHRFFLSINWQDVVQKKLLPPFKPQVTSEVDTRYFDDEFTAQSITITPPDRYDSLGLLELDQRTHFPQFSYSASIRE
# test_details: Live cell AKT2 target engagement by NanoBRET competitive probe displacement in HEK293 cells
# Type: binding
# test_conditions: NanoBRET live cell target engagement, HEK293 cells, 2 h at 37° C.; read-out: AKT2 IC50
pIC50: −log10 of the molar value.
# label = Y if pIC50 >= 6 else N

Cc1cc(C(F)F)ncc1C(=O)N[C@H]1CCc2cc(-n3c(-c4cccnc4N)nc4ccc(-n5cccn5)nc43)ccc21: Y
Nc1ncccc1-c1nc2ccc(-n3cccn3)nc2n1-c1ccc2c(c1)CC[C@@H]2n1cc(-c2cccnc2)nn1: Y
Nc1ncccc1-c1nc2ccc(-n3cccn3)nc2n1-c1ccc2c(c1)CC[C@@H]2NC1CCN(C(=O)C2CC2)CC1: N
Cn1nc(C(=O)N[C@H]2CCc3cc(-n4c(-c5cccnc5N)nc5ccc(-n6cccn6)nc54)ccc32)c2cccnc21: Y
C#Cc1ccc(C(=O)N[C@H]2CCc3cc(-n4c(-c5cccnc5N)nc5ccc(-n6cccn6)nc54)ccc32)cn1: Y
Cc1cccnc1C(=O)N[C@H]1CCc2cc(-n3c(-c4cccnc4N)nc4ccc(-n5cccn5)nc43)ccc21: N

Input line: Identify whether the reported pIC50 of the following molecule is 6 or greater: CCc1ccc(C(=O)N[C@H]2CCc3cc(-n4c(-c5cccnc5N)nc5ccc(-n6cccn6)nc54)ccc32)cn1
Output line: Y

Input line: Identify whether the reported pIC50 of the following molecule is 6 or greater: Cc1ncccc1C(=O)N[C@H]1CCc2cc(-n3c(-c4cccnc4N)nc4c(F)cc(-n5cccn5)nc43)ccc21
Output line: Y

Input line: Identify whether the reported pIC50 of the following molecule is 6 or greater: C#Cc1cc(C(=O)N[C@H]2CCc3cc(-n4c(-c5cccnc5N)nc5ccc(-n6cccn6)nc54)ccc32)ccn1
Output line: Y

Input line: Identify whether the reported pIC50 of the following molecule is 6 or greater: Cc1cc(C(=O)N[C@H]2CCc3cc(-n4c(-c5cccnc5N)nc5ccc(-n6cccn6)nc54)ccc32)ccn1
Output line: Y

Input line: Identify whether the reported pIC50 of the following molecule is 6 or greater: Nc1ncccc1-c1nc2ccc(-n3cccn3)nc2n1-c1ccc2c(c1)CC[C@@H]2NC(=O)c1ccc(OC(F)(F)F)nc1
Output line: Y

Input line: Identify whether the reported pIC50 of the following molecule is 6 or greater: Nc1ncccc1-c1nc2ccc(-n3cccn3)nc2n1-c1ccc2c(c1)CC[C@@H]2NC(=O)c1cnc2[nH]ncc2c1
Output line: Y

Input line: Identify whether the reported pIC50 of the following molecule is 6 or greater: CN1CC(c2cn([C@H]3CCc4cc(-n5c(-c6cccnc6N)nc6ccc(-n7cccn7)nc65)ccc43)nn2)C1
Output line: N

Input line: Identify whether the reported pIC50 of the following molecule is 6 or greater: Nc1ncccc1-c1nc2ccc(-n3cccn3)nc2n1-c1ccc2c(c1)CC[C@@H]2NC(=O)Cc1ccncc1
Output line: N

Input line: Identify whether the reported pIC50 of the following molecule is 6 or greater: Nc1ncccc1-c1nc2ccc(-n3nccn3)nc2n1-c1ccc2c(c1)CC(F)[C@@H]2NC(=O)c1ccc(C(F)F)nc1 (stereo partly drawn) [Compound 349]
Output line: Y

---

# measured_on: AKT1 WT (Homo sapiens, UniProt P31749)
# Construct: expressed in transfected cells; host or cells: HEK293
# Sequence (P31749 whole entry): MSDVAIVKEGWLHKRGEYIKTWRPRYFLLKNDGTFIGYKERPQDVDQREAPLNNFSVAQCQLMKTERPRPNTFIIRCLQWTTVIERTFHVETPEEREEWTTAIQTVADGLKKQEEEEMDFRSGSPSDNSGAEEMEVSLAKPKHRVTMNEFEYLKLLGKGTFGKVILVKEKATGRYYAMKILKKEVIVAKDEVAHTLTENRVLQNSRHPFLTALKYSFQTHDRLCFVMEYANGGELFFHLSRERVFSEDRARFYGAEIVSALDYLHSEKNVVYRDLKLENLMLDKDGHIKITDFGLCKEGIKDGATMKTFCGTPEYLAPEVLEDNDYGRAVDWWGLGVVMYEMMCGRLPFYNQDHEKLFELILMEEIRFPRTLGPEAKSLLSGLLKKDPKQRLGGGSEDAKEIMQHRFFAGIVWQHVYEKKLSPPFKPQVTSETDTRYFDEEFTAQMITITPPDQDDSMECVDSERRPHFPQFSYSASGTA
# test_details: Live cell AKT1 WT target engagement by NanoBRET competitive probe displacement in HEK293 cells
# Assay type: binding
# test_conditions: NanoBRET live cell target engagement, HEK293 cells, 2 h at 37° C.; read-out: AKT1 WT IC50
The compounds listed here are annotated with their IC50.
Provide the reading as a plain figure in nM.

Input line: Determine its reported IC50: Nc1ncccc1-c1nc2ccc(-n3cccn3)nc2n1-c1ccc2c(c1)CC[C@@H]2NC(=O)c1ccnc(C#Cc2ccccc2)c1 [Compound 209]
Output line: 37.7

Input line: Determine its reported IC50: Nc1ncccc1-c1nc2ccc(-n3cccn3)nc2n1-c1ccc2c(c1)CC[C@@H]2NC(=O)c1ccc(O)c(C(F)(F)F)c1 [Compound 257]
Output line: 8.26

Input line: Determine its reported IC50: Nc1ncccc1-c1nc2ccc(-n3nccn3)nc2n1-c1ccc2c(c1)CC[C@@H]2NC(=O)c1cnc(C(F)F)c(F)c1 [Compound 121]
Output line: 36.6

---

# measured_on: AKT2 (Homo sapiens, UniProt P31751)
# Construct: expressed in transfected cells; host or cells: HEK293
# test_details: Live cell AKT2 target engagement by NanoBRET competitive probe displacement in HEK293 cells
# Format: binding
# test_conditions: NanoBRET competitive probe displacement, live HEK293 cells, 2 h at 37° C.; read-out: AKT2 IC50
# Protocol: Determining live cell AKT1 E17K, AKT1 WT, and AKT2 target engagement by NanoBRET competitive probe displacement. […] Briefly, HEK293 cells were transfected with plasmids encoding kinase-NanoLuciferase fusion proteins overnight. […] After incubation for 2 h at 37° C., luciferase substrate and extracellular luciferase inhibitor were added to all wells, and luminescent intensity at 460 nm and 600 nm were measured on a multimode plate-reader. […]
Class assignment keyed on IC50, ranges lower segment (below 200 nM), middle segment (200 nM to below 1000 nM), upper segment (1000 nM or more)

Nc1ncccc1-c1nc2ccc(-n3cccn3)nc2n1-c1ccc2c(c1)CC[C@@H]2NC1CCN(C(=O)C2CC2)CC1F (some centres unmarked) [Compound 444]: middle segment
Cc1cc(C(=O)N[C@H]2CCc3cc(-n4c(-c5cccnc5N)nc5ccc(-n6cccn6)nc54)ccc32)cc(C(F)(F)F)c1O [Compound 416]: lower segment
Cn1ccc(N2CCC(N[C@H]3CCc4cc(-n5c(-c6cccnc6N)nc6ccc(-n7ccc(N8CCC8)n7)nc65)ccc43)CC2)n1 [Compound 596]: middle segment
Nc1ncccc1-c1nc2ccc(-n3cccn3)nc2n1-c1ccc2c(c1)CC[C@@H]2N1Cc2ccncc2C1 [Compound 494]: upper segment

Input line: // return the class label for Cc1ncc(C(=O)N[C@H]2CCc3cc(-n4c(-c5cccnc5N)nc5ccc(-n6nccn6)nc54)ccc32)s1 [Compound 492]
Output line: upper segment

Input line: // return the class label for Nc1ncccc1-c1nc2ccc(-n3cccn3)nc2n1-c1ccc2c(c1)CC[C@@H]2NC1CCC2(CC1)CN(c1ccccn1)C2 [Compound 450]
Output line: upper segment

Input line: // return the class label for N#Cc1nc(N2CCC(N[C@H]3CCc4cc(-n5c(-c6cccnc6N)nc6ccc(-n7cccn7)nc65)ccc43)CC2)cs1 [Compound 593]
Output line: lower segment

Input line: // return the class label for COc1csc(-c2ccc3nc(-c4cccnc4N)n(-c4ccc5c(c4)CC(F)[C@@H]5NC4CCN(C(=O)C5CC5)CC4)c3n2)n1 (some centres unmarked) [Compound 559]
Output line: middle segment

Input line: // return the class label for N[C@H]1CCc2cc(-n3c(-c4ccccc4F)nc4ccc(-n5cccn5)nc43)ccc21 [Compound 527]
Output line: upper segment

Input line: // return the class label for Nc1ncccc1-c1nc2ccc(-n3cccn3)nc2n1-c1ccc2c(c1)CC[C@@H]2NC1CCN(C(=O)C2CC2)CC1F (some centres unmarked) [Compound 443]
Output line: middle segment

Input line: // return the class label for N#Cc1nccc(N2CC(N[C@H]3CCc4cc(-n5c(-c6cccnc6N)nc6ccc(-n7cccn7)nc65)ccc43)C2)n1 [Compound 581]
Output line: lower segment

Input line: // return the class label for COCc1cc(C(=O)N[C@H]2CCc3cc(-n4c(-c5cccnc5N)nc5ccc(-n6cccn6)nc54)ccc32)ccc1O [Compound 410]
Output line: lower segment

Input line: // return the class label for Nc1ncccc1-c1nc2ccc(-n3cccn3)nc2n1-c1ccc2c(c1)CC[C@@H]2NC1CCN(C(=O)[C@H]2CC2(F)F)CC1 [Compound 476]
Output line: upper segment

Input line: // return the class label for N#Cc1nccc(C(=O)N2CCC(N[C@H]3CCc4cc(-n5c(-c6cccnc6N)nc6ccc(-n7cccn7)nc65)ccc43)CC2)n1 [Compound 580]
Output line: lower segment

Input line: // return the class label for COc1cc(C(=O)N[C@H]2CCc3cc(-n4c(-c5cccnc5N)nc5ccc(-n6nccn6)nc54)ccc32)cnn1 [Compound 426]
Output line: middle segment

Input line: // return the class label for Cc1ccc(C(=O)N[C@H]2CCc3cc(-n4c(-c5cccnc5N)nc5ccc(-c6nc(C(F)F)cs6)nc54)ccc32)cn1 [Compound 403]
Output line: lower segment

Input line: // return the class label for Cc1ccc(C(=O)N[C@H]2CCc3cc(-n4c(-c5cccnc5N)nc5c(C#N)cc(-n6nccn6)nc54)ccc32)cn1 [Compound 547]
Output line: upper segment

Input line: // return the class label for CS(=O)(=O)c1ccn(-c2ccc3nc(-c4cccnc4N)n(-c4ccc5c(c4)CC[C@@H]5NC4CCN(C(=O)C5CC5)CC4)c3n2)n1 [Compound 554]
Output line: upper segment

Input line: // return the class label for Nc1ncccc1-c1nc2ccc(-n3ccc(C4CCOCC4)n3)nc2n1-c1ccc2c(c1)CC[C@@H]2NC1CCN(C(=O)C2CC2)CC1 [Compound 487]
Output line: upper segment

Input line: // return the class label for Nc1ncccc1-c1nc2ccc(-n3ncc(C4CC4)n3)nc2n1-c1ccc2c(c1)CC[C@@H]2NC(=O)c1cnc(C(F)F)s1 [Compound 588]
Output line: middle segment

Input line: // return the class label for Nc1ncccc1-c1nc2ccc(-n3cccn3)nc2n1-c1ccc2c(c1)CC[C@@H]2NC1CCN(C(=O)C2CCC2)CC1 [Compound 422]
Output line: upper segment

Input line: // return the class label for CN(C)c1ccn(-c2ccc3nc(-c4cccnc4N)n(-c4ccc5c(c4)CC[C@@H]5NC4CCN(c5ccn(C)n5)CC4)c3n2)n1 [Compound 589]
Output line: middle segment

Input line: // return the class label for CN1CCN(c2ccn(-c3ccc4nc(-c5cccnc5N)n(-c5ccc6c(c5)CC[C@@H]6NC5CCN(c6ccn(C)n6)CC5)c4n3)n2)CC1 [Compound 598]
Output line: lower segment
